molecular target: PARM^Y543E (human Mint2 364-570, Y524W, Y543E) (human, UniProt Q99767 364-570, Y524W | Y543E); test: fluorescence polarisation; conditions: both partners purified
Sequence (Q99767 364-570 Y524W/Y543E): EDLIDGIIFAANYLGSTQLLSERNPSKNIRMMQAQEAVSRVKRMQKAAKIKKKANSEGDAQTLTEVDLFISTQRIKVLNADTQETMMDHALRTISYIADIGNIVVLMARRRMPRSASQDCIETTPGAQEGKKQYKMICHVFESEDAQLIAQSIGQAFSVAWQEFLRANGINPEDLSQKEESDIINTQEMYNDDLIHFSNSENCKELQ
measured-endpoint: Ki (nM)
Note: unit nM is implicit; provide only the numeric part.

Task item: Fill in reported Ki for this entry: NGYENPTYKFFE [APP^WT 12-mer (NGYENPTYKFFE), unlabelled]
Reply: 1100

Entry source: paper PMC8291497
